Readings of pKi for the listed compounds
- assayed_target: cACE (Homo sapiens, UniProt P12821)
- Sequence (P12821 643-1222 limits assumed): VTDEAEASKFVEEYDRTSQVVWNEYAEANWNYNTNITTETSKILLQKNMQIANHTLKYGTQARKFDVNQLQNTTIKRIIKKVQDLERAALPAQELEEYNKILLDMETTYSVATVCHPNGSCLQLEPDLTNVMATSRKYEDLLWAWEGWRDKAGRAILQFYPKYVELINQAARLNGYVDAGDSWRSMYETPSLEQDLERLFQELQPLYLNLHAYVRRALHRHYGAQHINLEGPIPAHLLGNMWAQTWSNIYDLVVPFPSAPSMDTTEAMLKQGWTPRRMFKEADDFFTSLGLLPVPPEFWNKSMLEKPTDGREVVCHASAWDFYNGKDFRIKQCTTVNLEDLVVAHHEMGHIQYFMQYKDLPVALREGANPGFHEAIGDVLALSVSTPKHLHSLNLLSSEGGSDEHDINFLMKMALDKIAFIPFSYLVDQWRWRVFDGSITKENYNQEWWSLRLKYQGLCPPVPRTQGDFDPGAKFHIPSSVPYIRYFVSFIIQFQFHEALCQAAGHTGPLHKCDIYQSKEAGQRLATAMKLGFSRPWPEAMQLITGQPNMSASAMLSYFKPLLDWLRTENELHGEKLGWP
- assay_protocol: Inhibitor binding kinetics, modified Abz-FRK(Dnp)P-OH assay, wild-type C-domain
- condition_details: cACE; Morrison plot; 50 mM HEPES pH 6.8, 200 mM NaCl, 10 μM ZnCl2; mean ± SD
pKi here is simply -log10 of the concentration when that concentration is written in mol/L.

# count of solved cases: 2
Entry CC(C)(C)OC(=O)NC(CC(=O)O)C(=O)NC(Cc1ccccc1)C(=O)CCC(=O)N1CCCC1C(=O)O (stereo not drawn) : reported pKi = ? 5.08

Cool, now CC(NC(C(=O)O)C1CCCN1C(=O)C(N)CC(=O)O)C(=O)N1CCCC1C(=O)O (stereo not drawn) 7.11

Further cases:
Entry O=C(N[C@H]1CCS[C@H]2CCC[C@@H](C(=O)O)N2C1=O)[C@@H](S)Cc1ccccc1 [Omapatrilat, omapatrilat, reference compound] : reported pKi = ? 9.15

----------
Readings of Ki for the listed compounds
- assayed_target: S2-nACE (Y369F and R381E) (Homo sapiens, UniProt P12821, R410E/Y398F)
- Sequence (P12821 40-624 Y398F/R410E): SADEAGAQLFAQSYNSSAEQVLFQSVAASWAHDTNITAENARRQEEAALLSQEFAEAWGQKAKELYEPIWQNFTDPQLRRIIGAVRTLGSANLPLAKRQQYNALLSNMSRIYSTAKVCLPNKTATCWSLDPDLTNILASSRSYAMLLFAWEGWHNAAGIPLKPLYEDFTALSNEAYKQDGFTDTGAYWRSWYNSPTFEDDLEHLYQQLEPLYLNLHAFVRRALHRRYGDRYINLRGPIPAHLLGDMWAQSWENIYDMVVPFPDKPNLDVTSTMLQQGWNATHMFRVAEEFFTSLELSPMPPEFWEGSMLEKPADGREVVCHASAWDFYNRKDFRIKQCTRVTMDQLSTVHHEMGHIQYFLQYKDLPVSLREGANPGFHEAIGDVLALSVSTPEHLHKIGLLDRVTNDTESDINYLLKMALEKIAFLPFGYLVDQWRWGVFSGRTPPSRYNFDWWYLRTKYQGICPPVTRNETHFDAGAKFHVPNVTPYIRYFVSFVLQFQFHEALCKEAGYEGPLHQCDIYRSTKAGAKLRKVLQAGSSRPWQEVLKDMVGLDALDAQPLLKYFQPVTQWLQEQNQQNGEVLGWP
- assay_protocol: Inhibitor binding kinetics, modified Abz-FRK(Dnp)P-OH assay, S2 mutant
- Format: biochemical
- Set-up: The truncated (single domain) wild-type N-domain (nACE), N-domain mutant constructs; made in house; host or cells: CHO-K1
- condition_details: S2-nACE; Morrison plot; 50 mM HEPES pH 6.8, 200 mM NaCl, 10 μM ZnCl2; mean ± SD

# count of solved cases: 2
Entry CC(C)(C)OC(=O)NC(CC(=O)O)C(=O)NC(Cc1ccccc1)C(=O)CCC(=O)N1CCCC1C(=O)O (stereo not drawn) : reported Ki = ? 17.8 µM

Cool, now CC(NC(C(=O)O)C1CCCN1C(=O)C(N)CC(=O)O)C(=O)N1CCCC1C(=O)O (stereo not drawn) 0.044 µM

Now turn to the next compound.
Entry O=C(N[C@H]1CCS[C@H]2CCC[C@@H](C(=O)O)N2C1=O)[C@@H](S)Cc1ccccc1 [Omapatrilat, omapatrilat, reference compound] : reported Ki = ? 0.00043 µM

----------
Readings of Ki for the listed molecules
- assayed_target: nACE (Homo sapiens, UniProt P12821)
- Sequence (P12821 40-624 limits assumed): as the sequence (P12821 40-624 Y398F/R410E) above, with F359Y, E371R counted along it
- assay_protocol: Inhibitor binding kinetics, modified Abz-FRK(Dnp)P-OH assay, wild-type N-domain
- Assay type: biochemical
- Parameters: The truncated (single domain) wild-type N-domain (nACE); made in house; host or cells: CHO-K1
- condition_details: nACE; Morrison plot; 50 mM HEPES pH 6.8, 200 mM NaCl, 10 μM ZnCl2; mean ± SD

Entry CC(NC(C(=O)O)C1CCCN1C(=O)C(N)CC(=O)O)C(=O)N1CCCC1C(=O)O (stereo not drawn) [SG6] : reported Ki = ? 0.093 nM

Cool, now O=C(N[C@H]1CCS[C@H]2CCC[C@@H](C(=O)O)N2C1=O)[C@@H](S)Cc1ccccc1 [Omapatrilat, omapatrilat, reference compound] 0.37 nM

Further cases:
Entry CC(C)(C)OC(=O)NC(CC(=O)O)C(=O)NC(Cc1ccccc1)C(=O)CCC(=O)N1CCCC1C(=O)O (stereo not drawn) [KetoACE13] : reported Ki = ? 1000 nM

----------
- assayed_target: S′-nACE (S260T, E262S, D354E, S357V, T358V and E431D) (Homo sapiens, UniProt P12821, D383E/E291S/E460D/S289T/S386V/T387V)
- Sequence (P12821 40-624 S289T/E291S/D383E/S386V/T387V/E460D): as the sequence (P12821 40-624 Y398F/R410E) above, with S250T, E252S, D344E, S347V, T348V, F359Y, E371R, E421D counted along it
- assay_protocol: Inhibitor binding kinetics, modified Abz-FRK(Dnp)P-OH assay, S′ mutant
- Assay type: biochemical
- condition_details: S′-nACE; Morrison plot; 50 mM HEPES pH 6.8, 200 mM NaCl, 10 μM ZnCl2; mean ± SD
measurement_kind: pKi
pKi here is simply -log10 of the concentration when that concentration is written in mol/L.

Entry CC(NC(C(=O)O)C1CCCN1C(=O)C(N)CC(=O)O)C(=O)N1CCCC1C(=O)O (stereo not drawn) [SG6] : reported pKi = ? 8.96

Further cases:
Entry O=C(N[C@H]1CCS[C@H]2CCC[C@@H](C(=O)O)N2C1=O)[C@@H](S)Cc1ccccc1 [Omapatrilat, omapatrilat, reference compound] : reported pKi = ? 9.31

Cool, now CC(C)(C)OC(=O)NC(CC(=O)O)C(=O)NC(Cc1ccccc1)C(=O)CCC(=O)N1CCCC1C(=O)O (stereo not drawn) [KetoACE13] 5.52
